Target: T1, recombinant human PCSK9 (human, UniProt Q8NBP7 31-692)
T1 construct: also called hPCSK9
T1 sequence (Q8NBP7 31-692 limits assumed): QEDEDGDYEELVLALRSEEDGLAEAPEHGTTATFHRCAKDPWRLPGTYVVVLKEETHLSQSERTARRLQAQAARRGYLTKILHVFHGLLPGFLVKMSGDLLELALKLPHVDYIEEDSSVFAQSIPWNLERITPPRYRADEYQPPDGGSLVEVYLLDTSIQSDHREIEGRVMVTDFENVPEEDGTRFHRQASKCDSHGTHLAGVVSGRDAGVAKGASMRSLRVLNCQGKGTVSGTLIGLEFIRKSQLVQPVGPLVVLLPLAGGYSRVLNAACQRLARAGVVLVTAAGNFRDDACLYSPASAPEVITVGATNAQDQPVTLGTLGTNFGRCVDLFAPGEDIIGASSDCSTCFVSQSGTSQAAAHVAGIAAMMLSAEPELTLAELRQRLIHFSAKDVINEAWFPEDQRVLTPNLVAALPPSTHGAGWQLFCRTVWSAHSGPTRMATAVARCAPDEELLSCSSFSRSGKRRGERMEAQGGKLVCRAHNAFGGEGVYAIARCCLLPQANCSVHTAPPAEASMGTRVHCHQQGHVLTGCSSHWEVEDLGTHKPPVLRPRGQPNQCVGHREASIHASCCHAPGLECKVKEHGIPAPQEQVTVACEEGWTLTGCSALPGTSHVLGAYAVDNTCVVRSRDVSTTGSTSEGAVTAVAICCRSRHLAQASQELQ
Assay: SPR (Biacore 3000); full-length IgG captured on anti-mouse IgG, PCSK9 injected
kon values, listed per item
Reply with just the number (in M⁻¹ s⁻¹).

binder	kon (M⁻¹ s⁻¹)
anti-PCSK9 antagonist monoclonal antibody 7D4 (antibody, V domains shown, Murine full-length IgG from a hybridoma; also called 7D4.4 (subclone); ATCC PTA-8983) VH: EVKLVESEGGLVQPGSSMKLSCTASGFTFSDYYMAWVRQVPEKGLEWVANINYDGSNTSYLDSLKSRFIISRDNAKNILYLQMSSLKSEDTATYYCAREKFAAMDYWGQGTSVTVSS VL: DIVMTQSHKFMSTSFGDRVSITCKASQDVSNALAWYQQKPGHSPKLLIFSASYRYTGVPDRFTGSGSGTDFTFTISSVQAEDLAVYYCQQHYSTPWTFGGGTKLEIKR	125000
anti-PCSK9 antagonist monoclonal antibody 4A5 (antibody, V domains shown, Murine full-length IgG from a hybridoma; also called 4A5.G3 (subclone); ATCC PTA-8985) VH: EVQLQQSGPELVKPGASVKISCKASGYTFTDYYMNWVKQSHGKSLEWIGDINPNNGGTTYNQKFKGKATLTVDKSYSTAYMELRSLTSEDSAVYYCARWLLFAYWGQGTLVTVSA VL: DIVMTQSQKFMSTSVGDRVSVTCKASQNVGTNVAWYQQKPGQSPKALIYSASYRYSGVPDRFTGSGSGTDFTLTISNVLSEDLAEYFCQQFYSYPYTFGGGTKLEIKR	66600
anti-PCSK9 antagonist monoclonal antibody 6F6 (antibody, V domains shown, Murine full-length IgG from a hybridoma; also called 6F6.G10.3 (subclone); ATCC PTA-8984) VH: EVQLQQSGPELVKPGASVKISCKASGYTFTDYYMNWVKQSHGKSLEWIGDINPNNGGTSYNQKFKGKATLTVDKSSSTAYMELRSLTSEDSAVYYCAGGGIYYRYDRNYFDYWGQGTTLTVSS VL: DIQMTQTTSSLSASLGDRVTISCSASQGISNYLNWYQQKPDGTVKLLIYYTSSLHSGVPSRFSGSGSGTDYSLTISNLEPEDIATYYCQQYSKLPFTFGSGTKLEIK	91500

Switching to the query record.
Quick one: give measured kon for anti-PCSK9 antagonist monoclonal antibody 5A10 (antibody, V domains shown, Murine full-length IgG from a hybridoma; Mouse precursor of L1L3; also called 5A10.B8 (subclone)) VH: QVQLQQPGAELVKPGASVKLSCKASGYTFTSYWMHWVKQRPGQGLEWIGEINPSNGRTNYNEKFKSKATLTVDKSSSTAYMQLSSLTSEDSAVYYCARERPLYAMDYWGQGTSVTVSS VL: DIVMTQSHKFMSTSVGDRVSITCKASQDVSTAVAWYQQKPGQSPKLLIYSASYRYTGVPDRFTGSGSGTDFTFTISSVQAEDLAVYYCQQRYSTPRTFGGGTKLEIKR
84700
